target of assay: PD-1/PD-L1 interaction (Jurkat cells overexpressing PD-1 co-cultured with PD-L1 expressing CHO cells) (Homo sapiens)
Construct: Jurkat cells (PD-1 and NF-AT luciferase construct)
Sequence (Q9NZQ7 19-290): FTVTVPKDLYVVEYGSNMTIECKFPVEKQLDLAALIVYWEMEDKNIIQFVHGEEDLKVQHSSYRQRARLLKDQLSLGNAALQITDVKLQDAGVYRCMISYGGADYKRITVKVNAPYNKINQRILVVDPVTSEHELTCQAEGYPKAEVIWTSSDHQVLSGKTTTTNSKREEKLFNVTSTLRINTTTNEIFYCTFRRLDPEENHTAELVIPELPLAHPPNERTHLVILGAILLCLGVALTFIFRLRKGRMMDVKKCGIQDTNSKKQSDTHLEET
assay procedure: PD-1/PD-L1 NFAT Reporter Assay
assay conditions: Table C-1; Jurkat/CHO co-culture, 6 hrs at 37° C., luciferase activity
pEC50: −log10 of the molar value.
pEC50: recorded values

>  <molecule>
CCOC(=O)C1CN([C@H]2CCc3cc(-c4cccc(-c5cccc(-c6cc7c(c(OC)c6)[C@@H](N6CC(C(=O)OCC)C6)CC7)c5Cl)c4Cl)cc(OC)c32)C1 (single isomer, unassigned)

>  <pEC50>
6.00 to 7.00

$$$$
>  <molecule>
COc1nc(-c2cccc(-c3cccc(-c4cc5c(c(OC)n4)[C@@H](NC[C@@H]4CCC(=O)N4)CC5)c3Cl)c2Cl)cc2c1[C@@H](NC[C@@H]1CCC(=O)N1)CC2

>  <pEC50>
≥ 8.00

$$$$
>  <molecule>
COc1cc(-c2cccc(-c3cccc(-c4cc5c(c(OC)c4)[C@@H](N4CC(C(=O)O)C4)CC5)c3Cl)c2Cl)cc2c1[C@@H](NC[C@@H]1CCC(=O)N1)CC2 (single isomer, unassigned)

>  <pEC50>
6.00 to 7.00

$$$$
